- ASSAY SYSTEM: T1, human MSLN-R1-his protein (human, UniProt Q13421 296-390)
- T1 construct: Self-made in HEK293E cells; also called human MSLN-R1 protein; hMSLN-R1-his; not shown: His tag
- T1 chain: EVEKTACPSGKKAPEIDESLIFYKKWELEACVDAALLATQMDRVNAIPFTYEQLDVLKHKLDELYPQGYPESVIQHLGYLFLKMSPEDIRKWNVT
- ASSAY NOTES: ELISA on coated antigen, no antibody (column none)

| BINDER | UNIT ABBREVIATION | OD450 |
| --- | --- | --- |
| S009-F3.16.1 (antibody, human IgG1, kappa, V domains shown, Human-murine chimeric antibody: murine VH/VL on human IgG1 heavy and kappa light constant regions) VH: EVKFEESGGGLVQPGGSMKLSCVASGFTFSNYWMNWVRQSPEKGLEWVAQIRLKSDNYATHYAESVKGRFSISRDDSKSSVYLQMNNLRAEDTGIYYCSVGTGGYWGQGTTLTVSS VL: DIVLTQSPASLALSPGKRATISCRASESVSIIGTDVIHWFQQKPGQPPKLLIYHASNLETGVPARFSGSGSRTDFTLTIDPVEEDDVAIYYCLQSRKIPWTFGGGTKLEIKR | OD450 | 0.08 |
| S009-F3.7.3 (antibody, human IgG1, kappa, V domains shown, Human-murine chimeric antibody: murine VH/VL on human IgG1 heavy and kappa light constant regions) VH: EVNFEESGGGLVQPGGSMKLSCVASGFTFSNYWMNWVRQSPEKGLEWVAQIRLKSDNYATHYAESVKGRFTISRDDFKSSVYLQMNNLRAEDTGIYYCTVGTGGYWGQGTTLTVSS VL: DIVLTQSPASLAMSLGKRATISCRASESVSIVGTNVIHWFQQKPGQPPKLLIYHASNLETGVPARFSGSGSGTDFTLTIDPVEEDDVAIYHCLQSRKIPWTFGGGTKLEIKR | OD450 | 0.08 |
| S009-F3.80.22 (antibody, human IgG1, kappa, V domains shown, Human-murine chimeric antibody: murine VH/VL on human IgG1 heavy and kappa light constant regions) VH: QVQLQQSGAELVRPGASVTLSCKASGYTFTDYEIHWVKQTPVHGLEWIGAFDPEIGGSAYNQKFKDRATLTADKSSSTAYMELHSLTAEDSAVYYCTDYYGSSSGYFDVWGTGTTVTVSS VL: DVVMTQTPLSLPVSLGDQASISCRSSQSLEHNNGNTYLHWFLHKPGQSPKLLIYKVSNRFSGVPDRFSGSGSGTDFTLKISRVEAEDLGVYFCSQSTHVPFTFGSGTKLEIKR | OD450 | 0.06 |
